// data source = patent US20240199745A1

Target: EGFR on EGFR positive non-small cell lung cancer cells NCI-H1650 (UniProt P00533 25-1210)
Experiment: cell-based or functional assay
Readout kind: H1650 CTG-3D EC50
The answer should read as a number with its unit following.

# H1650 CTG-3D EC50 (binder: AbA-WD (antibody, human IgG1, kappa, V domains shown, synthon WD on reduced interchain cysteines; average DAR 1.8 per ADC) VH: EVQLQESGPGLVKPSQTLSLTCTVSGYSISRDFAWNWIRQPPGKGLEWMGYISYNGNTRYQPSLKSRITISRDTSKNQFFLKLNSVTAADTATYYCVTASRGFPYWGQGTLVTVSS VL: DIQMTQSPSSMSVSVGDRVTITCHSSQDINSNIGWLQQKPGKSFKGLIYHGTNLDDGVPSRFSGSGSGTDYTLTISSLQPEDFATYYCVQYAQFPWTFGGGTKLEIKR ) is 23.6 µg/mL

# H1650 CTG-3D EC50 (binder: AbB-AAD (antibody, human IgG1, kappa, V domains shown, synthon AAD on reduced interchain cysteines; average DAR 2.7 per ADC) VH: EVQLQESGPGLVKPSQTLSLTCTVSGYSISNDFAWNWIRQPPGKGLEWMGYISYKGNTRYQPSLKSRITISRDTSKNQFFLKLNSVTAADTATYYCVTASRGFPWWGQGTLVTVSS VL: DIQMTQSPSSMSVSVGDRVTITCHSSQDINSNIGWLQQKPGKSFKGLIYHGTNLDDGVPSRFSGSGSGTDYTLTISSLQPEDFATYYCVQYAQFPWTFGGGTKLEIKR ) is 0.16 µg/mL

# H1650 CTG-3D EC50 (binder: AbG-SE (antibody, human IgG1, kappa, V domains shown, synthon SE on reduced interchain cysteines; average DAR 3.8 per ADC) VH: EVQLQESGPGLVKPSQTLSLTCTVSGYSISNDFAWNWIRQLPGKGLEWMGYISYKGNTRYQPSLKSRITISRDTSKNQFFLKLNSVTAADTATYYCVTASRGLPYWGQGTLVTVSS VL: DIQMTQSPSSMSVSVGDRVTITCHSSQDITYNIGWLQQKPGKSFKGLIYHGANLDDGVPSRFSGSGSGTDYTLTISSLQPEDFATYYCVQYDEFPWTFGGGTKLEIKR ) is 0.96 µg/mL
